Biological target: Renin (Homo sapiens, UniProt P00797)
Sequence (P00797 whole entry): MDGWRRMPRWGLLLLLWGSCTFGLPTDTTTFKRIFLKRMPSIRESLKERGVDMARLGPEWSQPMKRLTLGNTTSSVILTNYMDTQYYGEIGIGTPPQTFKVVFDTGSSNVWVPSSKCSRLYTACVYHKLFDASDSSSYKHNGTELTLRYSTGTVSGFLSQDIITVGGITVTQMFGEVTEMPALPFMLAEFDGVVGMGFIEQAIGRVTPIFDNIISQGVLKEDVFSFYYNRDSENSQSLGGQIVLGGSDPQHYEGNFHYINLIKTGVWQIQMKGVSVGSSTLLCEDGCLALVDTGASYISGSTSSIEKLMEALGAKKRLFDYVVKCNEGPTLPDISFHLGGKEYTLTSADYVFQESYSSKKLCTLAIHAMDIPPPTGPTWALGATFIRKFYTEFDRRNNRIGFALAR
Non-standard residues stand in square brackets, D forms with d. Residues, ends and D or L forms follow the SMILES beside them. *: point of attachment. hCha = N[C@@H](CCC1CCCCC1)C(=O)O; Boc = CC(C)(C)OC(=O)*
Property: pIC50
Formally, pIC50 is defined as -log10 of the concentration c, with c in mol/L.

Consider the worked cases shown below.
- CC(C)SC[C@H](O)[C@H](CC12CC3CC(CC(C3)C1)C2)NC(=O)[C@H](Cc1c[nH]cn1)NC(=O)[C@H](Cc1ccccc1)NC(=O)OC(C)(C)C: 5.60
- C[C@H](NC(=O)[C@H](Cc1ccccc1)NC(=O)OC(C)(C)C)C(=O)N[C@H](C=O)CCC1CCCCC1 (Boc-Phe-Ala-[hCha]-aldehyde): 4.26

Now examine the next entry.
Query: API: value(readout= pIC50, system= Renin (Homo sapiens, UniProt P00797), query= CC(C)SC[C@H](O)[C@@H](NC(=O)[C@H](Cc1cnc[nH]1)NC(=O)[C@H](Cc1ccccc1)NC(=O)OC(C)(C)C)C1CCCCC1 )
Response: 6.82

====

Target: UniProt P00797
Non-standard residues stand in square brackets, D forms with d. Residues, ends and D or L forms follow the SMILES beside them. *: point of attachment. Cha = N[C@@H](CC1CCCCC1)C(=O)O; Chg = N[C@H](C(=O)O)C1CCCCC1; Boc = CC(C)(C)OC(=O)*
// returns rule not met unless IC50 is strictly below 500 nM, in which case rule met

Query: Confirm or reject: IC50 of CC(C)SC[C@H](O)[C@H](Cc1ccccc1)NC(=O)[C@H](Cc1cnc[nH]1)NC(=O)[C@H](Cc1ccccc1)NC(=O)OC(C)(C)C lies strictly below 500 nM
Response: rule met

Query: is_below(IC50, 500 nM) for CC(C)C[C@H](NC(=O)[C@H](Cc1cnc[nH]1)NC(=O)[C@H](Cc1ccccc1)NC(=O)OC(C)(C)C)[C@@H](O)CSC(C)C ?
Response: rule met

Query: Item CC(C)SC[C@H](O)[C@H](CCC1CCCCC1)NC(=O)[C@H](Cc1c[nH]cn1)NC(=O)[C@H](Cc1ccccc1)NC(=O)OC(C)(C)C : IC50 beneath 500 nM, strictly?
Response: rule not met

Query: Confirm or reject: IC50 of CC(C)C[C@@H](C=O)NC(=O)[C@H](C)NC(=O)[C@H](Cc1ccccc1)NC(=O)OC(C)(C)C (Boc-Phe-Ala-Leu-aldehyde) lies strictly below 500 nM
Response: rule not met

Query: Please let me know if C[C@H](NC(=O)[C@H](Cc1ccccc1)NC(=O)OC(C)(C)C)C(=O)N[C@H](C=O)CC1CCCCC1 (Boc-Phe-Ala-[Cha]-aldehyde) shows IC50 below 500 nM.
Response: rule met

Query: Dear colleague, could you confirm whether IC50 of CC(C)SC[C@H](O)[C@H](CC1CCCCC1)NC(=O)[C@H](C)NC(=O)[C@H](Cc1ccccc1)NC(=O)OC(C)(C)C falls below 500 nM? Thanks.
Response: rule met

Query: Item C[C@H](NC(=O)[C@H](Cc1ccccc1)NC(=O)OC(C)(C)C)C(=O)N[C@H](C=O)C1CCCCC1 (Boc-Phe-Ala-[Chg]-aldehyde) : IC50 beneath 500 nM, strictly?
Response: rule not met

Reference source: ChEMBL document CHEMBL1124052
